Test system: SF-295 CNS
Test: NCI tumour cell line growth inhibition, 48 h
VALUE TYPE: GI50

MOLECULE | REPORTED
CN(C)Cc1ccc(NC(=O)c2cncc(C#Cc3cnc(N)c4ncccc34)c2)cc1C(F)(F)F | 1590 nM
O=[N+]([O-])c1ccccc1/C=N\NC(=S)N/N=C/c1ccccc1[N+](=O)[O-] | 1870 nM
O=C(CSSCC(=O)c1ccc(Cl)cc1)c1ccc(Cl)cc1 | 2580 nM
C[C@H]1C[C@@H](n2c(Nc3ccc(OC(F)(F)F)cc3)nc3cc(CCC(=O)O)ccc32)CC(C)(C)C1 | 4850 nM

Incoming: Indicate its recorded GI50; the molecule in question is `CN[C@@H](C)C(=O)N[C@H](C(=O)N1CCC[C@H]1c1nc(C(=O)c2ccc(F)cc2)cs1)C1CCCCC1`
Outgoing: 19400 nM

Incoming: Indicate its recorded GI50; the molecule in question is `CCCC(=O)Oc1ccc(/C(=C(\C)c2ccc(Cl)cc2)c2ccc(OCCN(CC)CC)cc2)cc1`
Outgoing: 1930 nM

Incoming: Indicate its recorded GI50; the molecule in question is `CN(C)S(=O)(=O)c1cccc(C(=O)Nc2nc(-c3ccc(F)c(F)c3)cs2)c1`
Outgoing: 2580 nM

Incoming: Indicate its recorded GI50; the molecule in question is N#CC1=C(N)NC(=O)C(C#N)C12Nc1ccccc1S2 (centres undefined)
Outgoing: 50600 nM

Incoming: Indicate its recorded GI50; the molecule in question is `Cc1cccc(CNc2c3ccccc3nc3ccccc23)c1`
Outgoing: 2130 nM

Entry source: PubChem BioAssay (NCI)
